# method: Pharmacokinetic test in mice (IV and PO)
# Type: in vivo
# experimental setup: mouse, plasma; BALB/c mice, IV 2 mg/kg; read-out: Vz
metric name: Vd (L/kg)
Kindly answer with a numeric value in L/kg, unit omitted.

Cc1c2c(nn1C)c(=O)n(-c1cccnc1)c1nc(C(F)(F)F)ccc21 [Compound B198] | 0.6
O=c1c2nn(C(F)F)cc2c2cc(F)c(C3CC3)nc2n1-c1cccnc1C1CC1 [Compound B361] | 1.34
Cn1cc2c(n1)c(=O)n(-c1cccnc1)c1nc(C(F)(F)F)ccc21 [Compound B72] | 0.9

// below: Vd requested for another compound
# input Bench note: what Vd did [2H]C([2H])([2H])n1cc2c(n1)c(=O)n(-c1cccc3[nH]ncc13)c1nc(C(F)(F)F)ccc21 [Compound B256] show?
# output 1

====

# method: Pharmacokinetic test in mice (IV and PO)
# Assay type: in vivo
# experimental setup: mouse, plasma; BALB/c mice, PO 10 mg/kg
metric name: AUC
# output: numeric value plus its unit

Here are 5 molecules together with their reported answers.
Cc1c2c(nn1C(F)F)c(=O)n(-c1cccc3[nH]ncc13)c1nc(C(F)(F)F)ccc21 [Compound B254] | 1470 µM·h
O=c1c2nn(C(F)F)cc2c2ccc(C(F)(F)F)nc2n1-c1cccc2[nH]ncc12 [Compound B245] | 807 µM·h
CCn1cc2c(n1)c(=O)n(-c1cccnc1)c1nc(C(F)(F)F)ccc21 [Compound B29] | 9.32 µM·h
Cn1cc2c(n1)c(=O)n(-c1cccc3[nH]ncc13)c1nc(C(F)(F)F)ccc21 [Compound B181] | 242 µM·h
Cn1cc2c(n1)c(=O)n(-c1cccc3[nH]ncc13)c1cc(Cl)c(F)cc21 [Compound B257] | 2110 µM·h

# input AUC lookup needed for Cc1ncccc1-n1c(=O)c2nn(C)cc2c2ccc(C(F)(F)F)nc21 (single isomer, unassigned) [Compound B180] , thanks.
# output 46.2 µM·h

====

# method: Pharmacokinetic test in mice (IV and PO)
# Type: in vivo
# experimental setup: mouse, plasma; BALB/c mice, PO 10 mg/kg; read-out: T½ (converted)
metric name: log10 half-life (log10 of the value in h)
Log10 applied to half-life; unit prior to transform: h.

Cn1cc2c(n1)c(=O)n(-c1cccc3[nH]ncc13)c1nc(C(F)(F)F)ccc21 [Compound B181] | 0.54
[2H]C([2H])([2H])n1cc2c(n1)c(=O)n(-c1cccc3[nH]ncc13)c1nc(C(F)(F)F)ccc21 [Compound B256] | 0.94
Cn1cc2c(n1)c(=O)n(-c1cccc3[nH]ncc13)c1cc(Cl)c(F)cc21 [Compound B257] | 1.53

# input Form field: reported log10 half-life of Cn1cc2c(n1)c(=O)n(-c1cccnc1)c1cc(Cl)ccc21 [Compound B12]
# output -0.09

# input Value lookup for log10 half-life; key = Cc1ncccc1-n1c(=O)c2nn(C)cc2c2ccc(C(F)(F)F)nc21 (single isomer, unassigned) [Compound B180]
# output -0.29

# input Please report the recorded log10 half-life for Cn1cc2c(n1)c(=O)n(-c1cccc3[nH]ncc13)c1cc(Cl)ccc21 [Compound B60] .
# output 0.95

# input Recorded log10 half-life of Cn1cc2c(n1)c(=O)n(-c1cccnc1)c1nc(C(F)(F)F)ccc21 [Compound B72] , please.
# output -0.02

# input Form field: reported log10 half-life of CCn1cc2c(n1)c(=O)n(-c1cccnc1)c1nc(C(F)(F)F)ccc21 [Compound B29]
# output -0.37

# input # lookup: log10 half-life of Cn1cc2c(n1)c(=O)n(-c1cccnc1C1CC1)c1cc(Cl)c(F)cc21 [Compound B340]
# output 0.89

====

# method: Pharmacokinetic test in mice (IV and PO)
# Format: in vivo
# experimental setup: mouse, plasma; BALB/c mice, IV 2 mg/kg
metric name: clearance (mL/min/kg)
Kindly answer with a numeric value in mL/min/kg, unit omitted.

# count of solved cases: 5
Cn1cc2c(n1)c(=O)n(-c1cccc3[nH]ncc13)c1nc(C(F)(F)F)ccc21 | 2.33
O=c1c2nn(C(F)F)cc2c2cc(F)c(C3CC3)nc2n1-c1cccnc1C1CC1 | 2.42
Cc1c2c(nn1C(F)F)c(=O)n(-c1cccc3[nH]ncc13)c1nc(C(F)(F)F)ccc21 | 0.317
Cn1cc2c(n1)c(=O)n(-c1cccnc1)c1cc(Cl)ccc21 | 22.7
[2H]C([2H])([2H])n1cc2c(n1)c(=O)n(-c1cccc3[nH]ncc13)c1nc(C(F)(F)F)ccc21 | 2.28

# input # get_value(readout='clearance', item= Cn1cc2c(n1)c(=O)n(-c1cccc3[nH]ncc13)c1cc(Cl)c(C#N)cc21 )
# output 2.08

# input Please report the recorded clearance for Cn1cc2c(n1)c(=O)n(-c1cccnc1C1CC1)c1cc(Cl)c(F)cc21 .
# output 1.83

====

Each entry below carries its reported IC50.
# Test system: HCT116-MTAP-knockout (−/−) cell strain
# method: Tumor cell proliferation inhibition assay (CellTiter-Glo), HCT116-MTAP-knockout (-/-)
# Assay type: cell-based
# experimental setup: Homo sapiens, 120 h, HCT116-MTAP-knockout (−/−) cells, 5-day treatment, IC50 score, read-out: Tumor cell 5-day relative growth inhibition (HCT116-MTAP−/−) (nM), score

# input Name the recorded IC50 for Cn1cc2c(n1)c(=O)n(-c1ccc(OC(F)F)cc1)c1nc(C(F)(F)F)ccc21 .
# output ≥ 2000 nM

# input I would be grateful if you could share the reported IC50 for O=c1c2n[nH]cc2c2cc(F)c(Cl)cc2n1-c1cccc2[nH]ncc12 .
# output < 500 nM

# input Quick check: IC50 of CN1CCN(c2nccc(Cn3cc4c(n3)c(=O)n(-c3cccc5[nH]ncc35)c3cc(Cl)c(F)cc43)n2)CC1 ?
# output < 500 nM

# input I'd like to know its IC50. The compound in question is Cc1n[nH]c2cccc(-n3c(=O)c4nn(C)cc4c4ccc(Cl)cc43)c12
# output < 500 nM

====

# System: SDMA in human colon cancer cell line HCT116
# method: Cell symmetric dimethylarginine (SDMA) test, In-cell Western, HCT116 (MTAP wild-type)
# Format: cell-based
# experimental setup: Homo sapiens, HCT-116, 96 h, IC50 score class, read-out: Cell 96 h SDMA Inhibition (HCT116-MTAP+/+) (score)
Below, each entry is listed alongside its reported IC50.

Cn1cc2c(n1)c(=O)n(-c1cccnc1C1CC1)c1cc(Cl)c(F)cc21 [Compound B340] | > 3000 nM
CCn1cc2c(n1)c(=O)n(-c1cnccn1)c1cc(Cl)ccc21 [Compound B6] | 200 to 1000 nM
Cn1cc2c(n1)c(=O)n(-c1cnccn1)c1nc(C(F)(F)F)ccc21 [Compound B227] | > 3000 nM

# evaluate next
# input Name the recorded IC50 for Cc1ncccc1-n1c(=O)c2nn(C)cc2c2ccc(C(F)(F)F)nc21 [Compound B76] .
# output 200 to 1000 nM

====

The entries below come with measured pIC50 values attached.
# System: SDMA in HCT116-MTAP-knockout cell line
# method: Cell symmetric dimethylarginine (SDMA) test, In-cell Western, HCT116-MTAP-knockout
# Assay type: cell-based
# experimental setup: Homo sapiens, 96 h, IC50 score class, read-out: Cell 96 h SDMA Inhibition (HCT116-MTAP−/−) (score)
pIC50: −log10 of the molar value.

Cn1cnc2c(=O)n(-c3cccnc3C3CC3)c3cc(Cl)c(F)cc3c21 [Compound B336] | > 6.70
Cn1cc2c(n1)c(=O)n(-c1cccc(O)c1)c1nc(C(F)(F)F)ccc21 [Compound B148] | > 6.70
Cn1cc2c(n1)c(=O)n(-c1ccccc1Cl)c1nc(C(F)(F)F)ccc21 [Compound B182] | > 6.70

# input State the recorded pIC50 for this entry: Cc1c2c(nn1C)c(=O)n(-c1cccnc1)c1cc(Cl)ccc21 [Compound B16]
# output > 6.70

====

Listing of recorded IC50 by entry.
# Test system: HCT116-MTAP wild-type (+/+)-cell strain
# method: Tumor cell proliferation inhibition assay (CellTiter-Glo), HCT116-MTAP wild-type (+/+)
# Assay type: cell-based
# experimental setup: Homo sapiens, 120 h, HCT116-MTAP wild-type (+/+) cells, 5-day treatment, IC50 value, read-out: Tumor cell 5-day relative growth inhibition (HCT116-MTAP+/+)
Provide the reading as a plain figure in nM.

Use the examples below as a reference point.
Cn1cc2c(n1)c(=O)n(-c1ccccc1Cl)c1nc(C(F)(F)F)ccc21 | 7340
CN1CCN(c2nccc(Cn3cc4c(n3)c(=O)n(-c3cccc5[nH]ncc35)c3cc(Cl)c(F)cc43)n2)CC1 | 550
CCn1cc2c(n1)c(=O)n(-c1cccnc1)c1nc(C(F)(F)F)ccc21 | 437

# input Lab request: please report IC50 under test system HCT116-MTAP wild-type (+/+)-cell strain for Cc1ncccc1-n1c(=O)c2nn(CC3CC3)cc2c2ccc(C(F)(F)F)nc21
# output 942
